Molecular target: catalytic domain (JH1, amino acids 826-1132) of human JAK2 (Homo sapiens, UniProt O60674)
Construct: catalytic domain (JH1, amino acids 826-1132) of human JAK2; FLAG (N)
Sequence (O60674 826-1132): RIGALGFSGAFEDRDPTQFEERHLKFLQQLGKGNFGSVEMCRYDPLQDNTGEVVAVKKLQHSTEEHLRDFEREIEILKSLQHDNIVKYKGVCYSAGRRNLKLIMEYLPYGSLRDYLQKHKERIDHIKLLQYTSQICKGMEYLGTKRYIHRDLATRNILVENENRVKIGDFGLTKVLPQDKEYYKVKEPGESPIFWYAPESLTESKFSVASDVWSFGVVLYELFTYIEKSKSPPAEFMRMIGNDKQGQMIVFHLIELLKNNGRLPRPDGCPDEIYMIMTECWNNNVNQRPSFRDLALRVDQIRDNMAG
Assay: JAK2 LanthaScreen JH1 Binding Assay
Conditions: JAK2 JH1 (1.5 nM), 50 nM fluorescent JAK2-JH1 tracer, 2 hours at 25° C.; read-out: JH1 BIND
experimental.endpoint: IC50

For orientation, consider the following solved cases.
[
  {
    "compound": "Cn1c(=O)n(-c2ccccc2)c2c3cc(-c4cnn(C5CCS(=O)(=O)C5)c4)[nH]c3ncc21 (stereo not drawn)",
    "experimental.endpoint": "IC50",
    "result": "0.01 to 0.1 µM"
  },
  {
    "compound": "CC(C)C(=O)c1[nH]c2ncc3c(c2c1-c1ccccc1)n(C)c(=O)n3C",
    "experimental.endpoint": "IC50",
    "result": "> 1 µM"
  },
  {
    "compound": "CC(C)n1c(=O)n(C)c2cnc3[nH]c(-c4ccc(CN5CCC(S(C)(=O)=O)CC5)cc4)c(-c4ccc(C#N)cc4)c3c21",
    "experimental.endpoint": "IC50",
    "result": "0.5 to 1 µM"
  },
  {
    "compound": "COc1ccc(-c2[nH]c3ncc4c(c3c2-c2ccc3c(cnn3C)c2)n(C(C)C)c(=O)n4C)cn1",
    "experimental.endpoint": "IC50",
    "result": "> 1 µM"
  },
  {
    "compound": "Cn1c(=O)n(C2CCOCC2)c2c3c(-c4ccc(C5(C#N)CC5)cc4)c(-c4ccc(CN5CCC(S(C)(=O)=O)CC5)cc4)[nH]c3ncc21",
    "experimental.endpoint": "IC50",
    "result": "0.1 to 0.5 µM"
  },
  {
    "compound": "CS(=O)(=O)C1CCN(Cc2ccc(-c3cc4c(ncc5[nH]c(=O)n(-c6ccccc6)c54)[nH]3)cc2)CC1",
    "experimental.endpoint": "IC50",
    "result": "0.01 to 0.1 µM"
  },
  {
    "compound": "Cn1c(=O)n(C2CCOCC2)c2c3c(-c4ccccc4)c(-c4ccc(CN5CCC(S(C)(=O)=O)CC5)cc4)[nH]c3ncc21",
    "experimental.endpoint": "IC50",
    "result": "0.5 to 1 µM"
  },
  {
    "compound": "COc1ccc(-c2[nH]c3ncc4c(c3c2-c2ccc3c(cnn3C)c2)n(C2CCCC2)c(=O)n4C)cn1",
    "experimental.endpoint": "IC50",
    "result": "> 1 µM"
  },
  {
    "compound": "Cn1ncc2cc(-c3c(-c4cccnc4)[nH]c4ncc5c(c34)n(C3CCCC3)c(=O)n5C)ccc21",
    "experimental.endpoint": "IC50",
    "result": "> 1 µM"
  },
  {
    "compound": "Cn1ncc2cc(-c3c(-c4ccc(CN5CCC(S(C)(=O)=O)CC5)cc4)[nH]c4ncc5c(c34)n(C3CCCC3)c(=O)n5C)ccc21",
    "experimental.endpoint": "IC50",
    "result": "0.1 to 0.5 µM"
  }
]

**Q:** Fill in: IC50 of CC(C)n1c(=O)n(C)c2cnc3[nH]c(-c4ccc(CN5CCC(S(C)(=O)=O)CC5)cc4)c(-c4ccc(C5(C#N)CC5)cc4)c3c21 is ___
**A:** > 1 µM

**Q:** Lookup CC(=O)N1CCN(c2ccc(-c3[nH]c4ncc5c(c4c3-c3ccc(C#N)cc3)n(C(C)C)c(=O)n5C)cc2)CC1
**A:** > 1 µM

**Q:** Thanks! And COc1ccc(-c2c(-c3ccc(CN4CCC(S(C)(=O)=O)CC4)cc3)[nH]c3ncc4c(c23)n(C2CCC2)c(=O)n4C)cc1 ?
**A:** 0.1 to 0.5 µM

**Q:** How about this compound: CC(C)n1c(=O)n(C)c2cnc3[nH]c(-c4cnn(CC(C)(C)O)c4)c(C45CCNCC4C5)c3c21 (stereo not drawn)
**A:** > 1 µM

**Q:** Consider next the compound Cn1ncc2cc(-c3c(C(O)C4CC4)[nH]c4ncc5c(c34)n(C3CCOCC3)c(=O)n5C)ccc21 (stereo not drawn) in the same way.
**A:** > 1 µM

**Q:** Input CC(=O)N1CCN(c2cc3sc(-c4c(-c5cnn(CC(C)(C)O)c5)[nH]c5ncc6c(c45)n(C(C)C)c(=O)n6C)cc3cn2)CC1
**A:** > 1 µM
